Target: Estrogen receptor beta (Homo sapiens)
Assay: qHTS assay to identify small molecule antagonists of the estrogen receptor beta (ER-beta) signaling pathway (AID 1259378)
Conditions: ER-beta-UAS-bla HEK293T, beta-lactamase FRET ratio, 16 h; series mostly up to 92.4 µM
Description: National Center for Advancing Translational Sciences [NCATS] NIH Chemical Genomics Center [NCGC] U.S. Environmental Protection Agency [EPA] National Institutes of Environmental Health Sciences [NIEHS] National Toxicology Program [NTP] U.S. Food and Drug Administration [FDA] Estrogen receptor (ER), a nuclear hormone receptor, plays an important role in development, metabolic homeostasis and reproduction. […]
Results filed as inconclusive are left out. Active and inactive are the calls of the source. Calls come from the whole dose curve; as a rule, active = well fitted inhibition curve with a large enough effect in the signal ratio in the repeat runs (not every such curve was filed as active); inconclusive = weak or mixed curves, or effect the other way; inactive = no such curve, though single readings can be large or run the other way; the % refers to the signal ratio.
Choose one outcome from this list and give only that: Y (active), N (inactive)

A selection of reference data follows.
1) CCOC(=O)c1ccccc1OC = N
2) O=C1NCCN1 = N
3) O=C(O)c1ccc(CO)o1 = N
4) CCC(C)=O = N
5) Cn1c(=O)c2c(ncn2CC(=O)O)n(C)c1=O = N

What classification did CC(C)=CC=O end up with in this test?
N

What classification did Cc1ccnc2ccccc12 end up with in this test?
N

What classification did O=C(N[C@@H](c1ccccc1)[C@@H]1CCCCN1)c1cccc(C(F)(F)F)c1Cl end up with in this test?
Y

What classification did CC1(C)C(=O)N(Br)C(=O)N1Cl end up with in this test?
N

What classification did C=CC(C)(O)CCCC(C)CCCC(C)CCCC(C)C (stereo unspecified) end up with in this test?
N

What classification did CCCCCCCCCCCCCCC[C@H](O)[C@@H](N)CO end up with in this test?
N

What classification did CCCOCCOCCO end up with in this test?
N

What classification did Cc1nc2ccccc2s1 end up with in this test?
N

What classification did CC(C)(C)C(=O)O end up with in this test?
N

What classification did C1COCO1 end up with in this test?
N

What classification did CCn1nc(C)c2c1C(=O)NCC(c1ccc(O)cc1)=N2 end up with in this test?
N
